# Tested on: MCF-7
# experiment_summary: XTT cytotoxicity assay
# Type: cell-based, human
# recorded_conditions: XTT; average ± standard deviation of 2-4 independent assays; read-out: Inhibition of Cancer Cell Proliferation (IC50) MCF-7
outcome_measure: IC50 (µM)
Your answer is read as µM, so omit the unit and give the number.

Incoming: Give the measured IC50 of COc1cc(NS(C)(=O)=O)ccc1Nc1c2ccccc2nc2ccccc12 [m-AMSA, reference compound] .
Outgoing: 21.7

Incoming: Name the recorded IC50 for O=C1C(NCCc2cc(Br)c(O)c(Br)c2)=CC2=NCCc3c[nH]c1c32 .
Outgoing: 13.2

Incoming: So what does the record say about IC50 for Cc1ccc(S(=O)(=O)n2cc3c4c2C(=O)C(NCCc2cc(Br)c(O)c(Br)c2)=CC4=NCC3)cc1 ?
Outgoing: 2.3

Incoming: Quick one: IC50 for O=C1C(NCc2ccccc2)=CC2=NCCc3c[nH]c1c32 ?
Outgoing: 1
